List of IC50 values.
# target-system: PD-1/PD-L1 (Homo sapiens (Human), UniProt Q9NZQ7)
# Sequence (Q9NZQ7 19-238): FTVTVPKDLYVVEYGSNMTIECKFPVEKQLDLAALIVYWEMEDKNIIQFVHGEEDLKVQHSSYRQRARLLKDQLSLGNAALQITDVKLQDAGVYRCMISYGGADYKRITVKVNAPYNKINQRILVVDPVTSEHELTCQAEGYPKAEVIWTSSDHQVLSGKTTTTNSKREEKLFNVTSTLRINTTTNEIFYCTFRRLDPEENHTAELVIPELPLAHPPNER
# method-description: PD-1/PD-L1 Homogeneous Time-Resolved Fluorescence (HTRF) Binding Assay
# applied-conditions: recombinant human PD-1 (3 nM) and PD-L1 (10 nM), 25° C., PBS pH 7.4

[[record]]
compound = "Cc1c(Nc2nccc3nccnc23)cccc1-c1cccc(-c2nc3cc(CN4CC[C@@H](C(=O)O)C4)cc(Cl)c3o2)c1C [Example 11]"
result = "≤ 10 nM"

[[record]]
compound = "Cc1c(Nc2nccc3cc(CN4CC[C@H](O)C4)cnc23)cccc1-c1cccc(-c2nc3cc(CN4CC[C@H](C(=O)O)C4)cc(C#N)c3o2)c1C [Example 25]"
result = "≤ 10 nM"


Note: attention shifts to another entry.
For Cc1c(Nc2ncnc3cccnc23)cccc1-c1cccc(-c2nc3cc(CN4CC[C@@H](C(=O)O)C4)cc(C#N)c3o2)c1C [Example 13] the compound record lists IC50 as ≤ 10 nM
